Values were extracted from ChEMBL document CHEMBL5550116.

Examples of compounds with documented pKi follow.
target: CDK9/cyclin T1 (Homo sapiens, UniProt P50750); assay: Inhibition of full-length recombinant N-terminal GST-tagged human CDK9 (1 to 372 residues)/His-tagged cyclinT1 (1 to 726 residues) expressed in baculovirus expression system using histone H1 as substrate preincubated for 10 mins followed by substrate and ATP addition and measured after 60 mins by ADP-Glo reagent based microplate reader assay
Sequence (O60563 whole entry, the tested form may be a part): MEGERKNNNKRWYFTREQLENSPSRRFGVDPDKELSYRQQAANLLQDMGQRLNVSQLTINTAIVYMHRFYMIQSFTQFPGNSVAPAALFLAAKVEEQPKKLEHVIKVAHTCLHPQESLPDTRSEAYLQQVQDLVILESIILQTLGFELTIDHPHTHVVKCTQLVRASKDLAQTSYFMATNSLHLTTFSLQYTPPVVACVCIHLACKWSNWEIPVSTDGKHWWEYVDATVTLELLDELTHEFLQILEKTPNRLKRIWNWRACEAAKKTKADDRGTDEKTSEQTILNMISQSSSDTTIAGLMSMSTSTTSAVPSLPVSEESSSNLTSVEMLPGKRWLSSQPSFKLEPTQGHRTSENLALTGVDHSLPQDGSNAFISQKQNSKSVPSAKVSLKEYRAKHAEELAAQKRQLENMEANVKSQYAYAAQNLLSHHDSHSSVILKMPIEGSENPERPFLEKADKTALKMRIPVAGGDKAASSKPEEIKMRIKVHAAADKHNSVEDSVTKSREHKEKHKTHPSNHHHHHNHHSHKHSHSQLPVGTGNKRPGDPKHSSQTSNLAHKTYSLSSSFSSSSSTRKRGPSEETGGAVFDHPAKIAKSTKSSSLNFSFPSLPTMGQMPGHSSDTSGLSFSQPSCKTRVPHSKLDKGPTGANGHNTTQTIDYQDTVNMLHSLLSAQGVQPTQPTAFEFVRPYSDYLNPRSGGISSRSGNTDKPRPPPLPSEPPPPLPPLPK
Sequence (P50750 whole entry, the tested form may be a part): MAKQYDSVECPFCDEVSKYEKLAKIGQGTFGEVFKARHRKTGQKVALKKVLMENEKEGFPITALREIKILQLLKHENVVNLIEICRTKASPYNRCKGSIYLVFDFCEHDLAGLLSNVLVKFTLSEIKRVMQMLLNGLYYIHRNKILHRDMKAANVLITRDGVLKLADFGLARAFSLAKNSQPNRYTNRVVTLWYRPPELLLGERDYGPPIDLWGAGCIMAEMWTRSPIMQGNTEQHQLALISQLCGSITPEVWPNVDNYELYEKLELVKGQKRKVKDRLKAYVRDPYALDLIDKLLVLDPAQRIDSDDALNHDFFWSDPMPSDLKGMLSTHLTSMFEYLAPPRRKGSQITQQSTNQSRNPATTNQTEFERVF
Notebook: values listed as pKi are -log10 of the concentration (mol/L).

Here are 4 compounds together with their reported answers.
CC(C)c1cnn2c3nc(nc12)N(CC1CCNCC1)CCCCCOc1cc(C#N)ccc1CN3
8.24
CC(C)c1cnn2c3nc(nc12)N(CC1CCN(C)CC1)CCCCCOc1ccccc1CN3
7.79
CC(C)c1cnn2c3nc(nc12)N(CC1CCNCC1)CCCCCOc1cc(C(F)(F)F)ccc1CN3
7.36
CC(C)c1cnn2c3nc(nc12)N(CC1CNC1)CCCCCOc1ccccc1CN3
7.22

Exercise: Name the recorded pKi for CC(C)c1cnn2c3nc(nc12)N(CC1CCNCC1)CCCCCOc1cc(S(C)(=O)=O)ccc1CN3 .
Solution: 8.57
